# Target system: tau (Homo sapiens, UniProt P10636)
# Sequence (P10636 623-695 limits assumed): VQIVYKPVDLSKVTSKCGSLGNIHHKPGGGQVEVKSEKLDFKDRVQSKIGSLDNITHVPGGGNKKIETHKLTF
# Test description: MCE Phenols Library screening, tau biosensor cell seeding assay (AvZ)
# Format: cell-based
# Measurement parameters: average of raw data 1 and 2
Could you please report measured av puncta for the items listed next?
Give bare numbers.

Reference set (3 entries):
O=c1c(O)c(-c2ccc(O)c(O)c2)oc2cc(O)c(O)c(O)c12 = 1487.44
COc1cc(C(=O)O)cc(O)c1O = 10472
O=C1C[C@@H](c2cc(O)c(O)c(O[C@@H]3O[C@H](CO)[C@@H](O)[C@H](O)[C@H]3O)c2)Oc2cc(O)cc(O)c21 [Plantagoside] = 21412.5

// each compound listed below needs its av puncta
1. CC(C)=CCc1c(O[C@@H]2O[C@H](CO)[C@@H](O)[C@H](O)[C@H]2O)cc(O)c2c(=O)c(O[C@@H]3O[C@@H](C)[C@H](O)[C@@H](O)[C@H]3O)c(-c3ccc(O)cc3)oc12 [Epimedoside A]
2. Oc1ccc([C@H]2COc3cc(O)ccc3C2)cc1 [(-)-(S)-Equol]
3. O=C(/C=C/c1ccc(O)c(O)c1/C=C/c1ccc(O)c(O)c1)O[C@H](Cc1ccc(O)c(O)c1)C(=O)O
4. CC(C)=CC[C@H](OC(=O)C=C(C)C)C1=CC(=O)c2c(O)ccc(O)c2C1=O
5. Nc1ccc(O)c(C(=O)O)c1 [5-Aminosalicylic Acid, reference compound]
6. CC(C)c1ccc2c(c1O)CC[C@H]1C3=C(CC[C@]21C)C(=O)OC3 [Triptophenolide]
7. O=c1cc(-c2ccc(O)cc2)oc2cc(O[C@@H]3O[C@H](CO)[C@@H](O)[C@H](O)[C@H]3O)cc(O)c12 [Apigenin 7-glucoside]
8. C[C@@H]1O[C@@H](OC[C@H]2O[C@@H](Oc3c(-c4ccc(O)cc4)oc4cc(O)cc(O)c4c3=O)[C@H](O[C@@H]3O[C@@H](C)[C@H](O)[C@@H](O)[C@H]3O)[C@@H](O)[C@H]2O)[C@H](O)[C@H](O)[C@H]1O

A.
1. 22081.1
2. 19047.3
3. 383.467
4. 27599.4
5. 17310.9
6. 22243.1
7. 20688.8
8. 29752.2

====

# Target system: tau (Homo sapiens, UniProt P10636)
# Test description: MCE Phenols Library screening, tau biosensor cell seeding assay (AvZ)
# Format: cell-based
# Measurement parameters: raw puncta, replicate 2
Assay metric: raw data 2

O=c1c(-c2ccc(O)cc2)coc2cc(O)ccc12 = 6361.09

Dear colleague, could you please provide raw data 2 for the compounds listed below?
1. O=C1c2ccccc2C(=O)c2c(O)c(O)cc(O)c21
2. O=c1c(O[C@@H]2O[C@H](CO)[C@@H](O)[C@H](O)[C@H]2O[C@@H]2O[C@H](CO)[C@@H](O)[C@H](O)[C@H]2O)c(-c2ccc(O)cc2)oc2cc(O)cc(O)c12 [Kaempferol 3-O-sophoroside]
3. O=C(O)[C@H]1O[C@@H](Oc2cc(O)c3c(=O)cc(-c4ccc(O)c(O)c4)oc3c2)[C@H](O)[C@@H](O)[C@@H]1O [Luteolin 7-O-glucuronide]
4. O=C(O)c1cccc(O)c1O

A.
1: 2657.32; 2: 13142.7; 3: 12627.8; 4: 5843.4

Q. Field request: raw data 2 | item: COC1=C[C@@H]2[C@@H]3Cc4ccc(OC)c(O)c4[C@]2(CCN3C)CC1=O.Cl [Sinomenine hydrochloride]
A. 13470.9

====

# Target system: tau (Homo sapiens, UniProt P10636)
# Test description: MCE Phenols Library screening, tau biosensor cell seeding assay (AvZ)
# Type: cell-based
# Measurement parameters: puncta, replicate 2
Assay metric: raw data 2
Answers are plain numbers.

CC(=O)c1ccc(O)cc1C [4?-Hydroxy-2?-methylacetophenone] = 9927.81
COc1cc2ccc(=O)oc2c(O)c1OC [Fraxidin] = 10028.5
O=c1cc(-c2ccc(O)c(-c3c(O)cc(O)c4c(=O)cc(-c5ccc(O)cc5)oc34)c2)oc2cc(O)cc(O)c12 [Amentoflavone] = 9468.24
Oc1cc(O)c2c(c1)O[C@H](c1ccc(O)c(O)c1)[C@@H](O)C2 [Catechin] = 7181.16
O=C(/C=C/c1ccccc1)c1ccc(O)cc1 [4'-Hydroxychalcone] = 16121.4
COc1cc([C@@H]2c3cc4c(cc3C[C@H]3COC(=O)[C@@H]32)OCO4)cc(OC)c1OC [Deoxypodophyllotoxin] = 53571.1
COc1cc2c(cc1O)CC[C@@H]1[C@@H]2CC[C@]2(C)[C@@H](O)CC[C@@H]12 [2-Methoxyestradiol] = 20246.7

Q. Form field - read-out: raw data 2; system: tau (Homo sapiens, UniProt P10636); submitted item: O=C(O)[C@H]1O[C@@H](Oc2cc3oc(-c4ccc(O)cc4)cc(=O)c3c(O)c2O)[C@H](O)[C@@H](O)[C@@H]1O [Scutellarin]
A. 3121.8

====

# Target system: tau (Homo sapiens, UniProt P10636)
# Test description: MCE Phenols Library screening, tau biosensor cell seeding assay (AvZ)
# Type: cell-based
# Measurement parameters: Z score, replicate 2
Exam item: assign 1 to entries whose Z Repl 2 is below -0.2 and -1 to entries at or above -0.2. Note that a value of exactly -0.2 receives -1.

Example results:
COc1cc(/C=C/C(=O)O)cc(O)c1O [5-Hydroxyferulic acid] = 1
O=c1cc(-c2ccc(O)cc2)oc2cc(O)c(O)c(O)c12 = 1
O=c1ccoc2cc(O)cc(O)c12 [5,7-Dihydroxychromone] = 1
COc1cc(/C=C/C(=O)OCC[N+](C)(C)C)cc(OC)c1O.N#C[S-] [Sinapine (thiocyanate)] = -1
COc1cc([C@@H]2c3cc4c(cc3C[C@H]3COC(=O)[C@@H]32)OCO4)cc(OC)c1OC = -1
COc1cc2c(cc1O)-c1c(OC)c(O)cc3c1[C@H](C2)NCC3 = -1
Oc1cc(O)c2c(c1)O[C@H](c1ccc(O)c(O)c1)[C@H](O)[C@H]2c1c(O)cc(O)c2c1O[C@H](c1ccc(O)c(O)c1)[C@H](O)C2 = 1

Consider the additional compound presented here.
Q. Find out if reported Z Repl 2 for OCC(O)c1ccc(O)c(O)c1 (centres unmarked) [4-(1,2-Dihydroxyethyl)benzene-1,2-diol] is less than -0.2
A. -1

====

# Target system: tau (Homo sapiens)
# Test description: MCE Phenols Library screening, tau biosensor cell seeding assay (AvZ)
# Type: cell-based
# Measurement parameters: puncta, replicate 1
Exercise: state measured raw data 1 for each of the compounds provided.
Answers are plain numbers.

Please review the following examples before continuing.
C[C@@H]1CC(=O)c2c(ccc3c2C(=O)c2cccc(O)c2C3=O)C1 = 14447.4
N[C@@H](Cc1ccc(O)c(Cl)c1)C(=O)O = 31767.4
COC(=O)c1cc(O)c(O)c(O)c1 [Methyl gallate] = 5612.12

Q. Quick check: raw data 1 of O=C(O)Cc1c[nH]c2ccc(O)cc12 [5-Hydroxyindole-3-acetic acid] ?
A. 24430.2

====

I'd be grateful if you could share measured av puncta for these entries.
# Target system: tau (Homo sapiens, UniProt P10636)
# Test description: MCE Phenols Library screening, tau biosensor cell seeding assay (AvZ)
# Format: cell-based
# Measurement parameters: average of raw data 1 and 2
Give bare numbers.

O=C1O[C@@H]2[C@@H](O)[C@H](O)[C@@H](CO)O[C@H]2c2c1cc(O)c(O)c2O = 18743.5

Look up av puncta for the entries below, preserving their order.
1. O=C(OC[C@H]1O[C@@H](OC(=O)c2cc(O)c(O)c(OC(=O)c3cc(O)c(O)c(O)c3)c2)[C@H](OC(=O)c2cc(O)c(O)c(OC(=O)c3cc(O)c(O)c(O)c3)c2)[C@@H](OC(=O)c2cc(O)c(O)c(OC(=O)c3cc(O)c(O)c(O)c3)c2)[C@@H]1OC(=O)c1cc(O)c(O)c(OC(=O)c2cc(O)c(O)c(O)c2)c1)c1cc(O)c(O)c(OC(=O)c2cc(O)c(O)c(O)c2)c1
2. COc1c2ccoc2nc2c(O)cccc12
3. O=c1c2cc(O)c(O)cc2oc2c([C@@H]3O[C@H](CO)[C@@H](O)[C@H](O)[C@H]3O)c(O)cc(O)c12
4. O=C(/C=C/c1ccc(O)c(O)c1)c1ccc(O)c(O)c1O

A.
829.805
25188.7
24267.1
1923.27

// for each molecule in input: emit av puncta
1. O=C(O)[C@H]1O[C@@H](Oc2cc3oc(-c4ccc(O)cc4)cc(=O)c3c(O)c2O)[C@H](O)[C@@H](O)[C@@H]1O
2. O=Cc1cccc(O)c1 [3-Hydroxybenzaldehyde]
3. COc1cc(O)c2c(=O)c3c(O[C@@H]4O[C@H](CO)[C@@H](O)[C@H](O)[C@H]4O)ccc(O)c3oc2c1
4. O=C1C[C@@H](c2ccc(O)c(O)c2)Oc2cc(O[C@@H]3O[C@H](CO)[C@@H](O)[C@H](O)[C@H]3O)cc(O)c21 [Eriodictyol-7-O-glucoside]
5. COc1ccc(C=O)cc1

A.
[3169.77, 18142.7, 19147.5, 19967.8, 22737.8]

Give me av puncta for each of these molecules, listed below.
1. Cl.NCC(O)c1ccc(O)cc1 (stereo not shown) [Octopamine (hydrochloride)]
2. O=C(O[C@@H]1Cc2c(O)cc(O)cc2O[C@@H]1c1ccc(O)c(O)c1)c1cc(O)c(O)c(O)c1 [(-)-Epicatechin gallate]
3. CC(C)(O)CCc1c(O)cc(O)c2c(=O)c(O)c(-c3ccc(O)cc3)oc12
4. C[C@@H]1O[C@@H](Oc2cc(O)c3c(=O)c(O[C@@H]4O[C@@H](C)[C@H](O)[C@@H](O)[C@H]4O)c(-c4ccc(O)cc4)oc3c2)[C@H](O)[C@H](O)[C@H]1O

A.
1. 19376.3
2. 10272.2
3. 24195.2
4. 8757.09

Below are 8 molecules. Give each one its av puncta.
1. CC[C@@H](C(=O)[C@@H](C)[C@@H](O)[C@H](C)CCc1ccc(C)c(O)c1C(=O)O)[C@H]1O[C@](CC)([C@H]2CC[C@](O)(CC)[C@H](C)O2)C[C@@H]1C
2. O=C(O)c1cc(O)c2c(c1)[C@H]([C@H]1c3cccc(O)c3C(=O)c3c(O)cc(C(=O)O)cc31)c1cccc(O)c1C2=O
3. COc1ccc(/C=C/c2cc(O)cc(O)c2)cc1
4. COc1cc(C(=O)OCCCCNC(=N)N)cc(OC)c1O
5. NCC(c1ccc(O)cc1)C1(O)CCCCC1 (stereo not shown)
6. COc1c(O)cc2oc(-c3ccc(O)c(O)c3)cc(=O)c2c1O
7. NC(Cc1cccc(O)c1)C(=O)O (racemic)
8. O.O=C(O)c1cc(O)c(O)c(O)c1 [Gallic acid (hydrate)]

A.
1: 20851.6; 2: 22482.9; 3: 26435.9; 4: 34936.6; 5: 30393; 6: 10877.8; 7: 41183.3; 8: 5320.33
